Hi there, I'd appreciate the recorded ETS1 binding intensity for every entry that follows.
Molecular target: ETS1 (UniProt P14921)
Sequence: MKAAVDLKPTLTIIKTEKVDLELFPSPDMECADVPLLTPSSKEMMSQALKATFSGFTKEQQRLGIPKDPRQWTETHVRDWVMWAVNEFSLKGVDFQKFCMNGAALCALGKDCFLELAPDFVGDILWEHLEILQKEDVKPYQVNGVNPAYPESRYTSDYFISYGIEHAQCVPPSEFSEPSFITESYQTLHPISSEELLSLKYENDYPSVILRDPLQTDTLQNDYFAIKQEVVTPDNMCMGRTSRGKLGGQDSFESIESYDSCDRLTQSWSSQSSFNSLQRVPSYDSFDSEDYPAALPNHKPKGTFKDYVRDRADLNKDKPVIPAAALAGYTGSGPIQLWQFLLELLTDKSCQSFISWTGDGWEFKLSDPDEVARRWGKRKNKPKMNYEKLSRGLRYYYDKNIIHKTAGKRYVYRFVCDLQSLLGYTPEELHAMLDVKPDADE
Assay: ETS1 binding intensity (PBM fluorescence), ETS1 alone (arbitrary fluorescence units); higher = stronger binding
Settings: ETS1 concentration 1 nM; RUNX1 concentration 0 nM
API doc: respond with a numeric literal and nothing else, no unit.

For record "AACATCCTGTGTAAAGAGAATTGAATGTGGTTTTCT" the listed ETS1 binding intensity is 559

Please fill in: ETS1 binding intensity reported for "TGCGCCAGCCTTCCTGTCGTGGTCACCGGTGGCAGC" = 446

response.value for "GAAAGCACGTGTTTCCTGCGGCTGCACCCCAGCACC" (field: ETS1 binding intensity) = 479

For reference, reported ETS1 binding intensity for "CAAAGCAACCCAAGGGGATGTGGTCACTGGGGTGAG" stands at 413

The sequence identified as "GCCCCCGGAAGCTGTCGCCCCGTGCGGTGTGTGCTG" registered its ETS1 binding intensity at 1600

// field: ETS1 binding intensity; key: "GCCACCGTATTTCCGCGTTTTTCGCGGTAGGCGGGA" ; value = 465

Notebook: "GTGCGGAAGCGCGCCAAGGCACGTGACCGCTTCTGT" , ETS1 binding intensity read as 381

get_value(item= "GGTTTCGCTTCCGGGTTAGGCGGCCGCAGAAGCGTA" , readout=ETS1 binding intensity) returns 947

Briefly, ETS1 binding intensity measured for "CAGCTTTCCGGCCTGCAGCACAGGCAATGTGGTTTT" : 341

// ETS1 binding intensity lookup, sequence = "AATATAGGAAGTGTCAGCTAGGGAACTCAACCACAA" , result: 496

Item: "TCTCGTCCGGTCCTTGCTCCCCCTCCCCGCAGCGCT" | ETS1 binding intensity: 637

The recorded ETS1 binding intensity for entry "GTGGGTAGGGAGGAAGCTGTGAAACCACCTCCCCTC" equals 688

// recorded ETS1 binding intensity for "GGACTTCCTGAACTGGGAGGTCACCGACCACAACCT" : 354

For this sequence ( "TTGCCATTCCAGGAAATGAGCTTACCACATTGACTG" ), measured ETS1 binding intensity is 1980

Entry "GTAGAGACAGGAAATTATGTTGGTTTTCTTGCAGAA" ; ETS1 binding intensity = 3530

// field: ETS1 binding intensity; key: "GAGGAAAAAGGAAACAGAAACTCCGCAACTTGCGCC" ; value = 503

// field: ETS1 binding intensity; key: "CCGCTGAGAACAGGATGTGGGTGTCAGGAGGTGAAG" ; value = 4850

Query "CCAGAGCACATCCTACACGCACCACAACCTGAAAAC" yields ETS1 binding intensity of 453

Memo: "ACTGAACAAACCGGATGTGGTTGCCACCTGCAATCT" , reported ETS1 binding intensity: 19800

The recorded ETS1 binding intensity for entry "CACTTCCGGGTCGTCAGCTCAGTTCTGCGGTTTCTG" equals 1030

According to the records, this sequence "CCCGGAAACTCAACTGCCCACTGCTGCGGCCGCCAT" displays ETS1 binding intensity of 599

# ETS1 binding intensity (sequence: "GACCAATGTAAACAAGGATGTGGGTTCTCCGGCCAC" ) is 784

"GAACCCAGGTCTGCTTCCTGTGGCCACCATCTGTGC" yielded ETS1 binding intensity of 761

The value of ETS1 binding intensity measured for the sequence "GTACGCTCTTCACTTCCCGTACCCGCGCCCGGCAGG" turned out to be 609

Notebook: "GACAAAGAGGAAGTCCCCAAAAACCACAATAACAGT" , ETS1 binding intensity read as 910

Briefly, ETS1 binding intensity measured for "GCTAGACAGGAAACAGTGAGCTTCTGTGGGCAGGAG" : 2770

The measured ETS1 binding intensity associated with "AGAATTACCAGGAAGCCGAGCGCTGCGGGCTAGCGG" reads 518

Value of measured ETS1 binding intensity for the entry "AGCACGCCGGGAAATGGAGTCTCAGGTGGTTTTTAA" : 443

In plain terms, "CGTTATTTCCGGGGCTGGGTTAACGCAGCGGTTCCA" has a documented ETS1 binding intensity of 631

Documented ETS1 binding intensity of "GCATTGTGCTTCCGCTCGGGGAAAGACCGCTTACGG" : 789

The reported value for "GAACATGGTCTCCGCTTCCGCCGCAACCTCGGCCTT" in terms of ETS1 binding intensity is 525

Query "CAATGGATGGCCACATCCTCACCACAAACTGAGTCA" yields ETS1 binding intensity of 368

For this sequence ( "AAATGTGGCCGGATGCTCTGTGGGCGGGCGGCAGCT" ), measured ETS1 binding intensity is 2890

sequence "CCCGACTTCCGCCGCTGGTGGCCACCCGCAGGTAGT" , ETS1 binding intensity observed: 732

Entry "GGGCTCGGGGAGGAAGCGGTGGTTTCTCTTTGAAGC" , ETS1 binding intensity reported as 696

Query "GGCGGGACTTCCGGCGTCTCCCCTCGGCGGTTGCTT" yields ETS1 binding intensity of 2330

Per the record, "CTAAGTGCTCTTCCTGCCAACCTGTGGGCGCCTGGC" has ETS1 binding intensity of 559

ETS1 binding intensity for "GAGGAACCCAAAGTAGGATGTGGTTTTGCAATTGGA" is 757

Please fill in: ETS1 binding intensity reported for "TGTGCTGACTACAGGATGCTGTGGTTAGTCAGGTTG" = 1690

Given item "GCGCCCGGAAGGAAGGCTGGGGTAGGTTGTGGTTTC" , the value recorded as its ETS1 binding intensity is 476

The measured ETS1 binding intensity associated with "ACAGATACAGCCTCAGGAAGTGGTTTTGTATCTCTG" reads 3200

ETS1 binding intensity recorded for this sequence, "GCGACCCGACCCGGCGGAAACCACCTCGACAGCCTC" , is 915

Recorded ETS1 binding intensity (sequence "ACGCCGCGCATCCGCGCTTTACGGCGGCCGCAAAAT" ): 405

Entry "AAAACCTTGTTGAAAGGATGTGGCTTAGCGAGAGGT" ; ETS1 binding intensity = 1140

The sequence listed as "CTATATCACATCCTTTCTCTGACCGCGCTGACTTCG" has a reported ETS1 binding intensity of 452

So for "TTTTTTCCGCCTGTAGGGTCACATTGTGGTTGATTG" , the logged ETS1 binding intensity turned out to be 446

response.value for "GTGGGGGTGACAGGATGCGGGTAGAGGGCTCAGCCA" (field: ETS1 binding intensity) = 1950

What the record says about "TGTTGTAGGGGAAGTGGTGTGTGGTATTCCTGGGGA" : ETS1 binding intensity is 797

Please fill in: ETS1 binding intensity reported for "CTTCTCGCGGAAGCGGCACAAGCCGCAGTACAGCGC" = 301

Noted for "CACTTCCTCCTCGGGGGCCTCAGAAAACCACAGGGC" : its ETS1 binding intensity reads 413

All values here come from the supplement of paper PMC10681739.
